measurementNotes: Cytotoxicity assay (WST-1), viability of mouse peritoneal cells
Type: cell-based
conditionLabel: 10 µM compound, mouse peritoneal cells 1.0 × 10^6/mL, 24 h, read-out: Cell viability (O.D.) relative to untreated controls
Protocol: The tested compounds were dissolved in dimethyl sulfoxide (DMSO) to make stock solutions at a concentration of 50 mM, and then stored at −20 °C. Their biological activities were screened using a final concentration of 10 µM. […] The viability of mouse peritoneal cells was determined using a colorimetric assay based on the cleavage of tetrazolium salt WST-1 by mitochondrial dehydrogenases in viable cells (Roche Diagnostics, Mannheim, Germany). […] Optical density was evaluated at wavelengths of 450–690 nm.
readoutKind: viability at 10 µM (%)
Numbers only, in %.

query: Can you look up the measured viability at 10 µM of C=C1C(=O)OC2C1CC(O)C(C)=CCCC1(C)OC21 (centres unmarked) [Compound 20, 9-hydroxyparthenolide] for me?
result: 77
